B1: Tyrosine-protein kinase BTK, residues 215 to 273; numbered along this chain, Q06187 (parent)
chain: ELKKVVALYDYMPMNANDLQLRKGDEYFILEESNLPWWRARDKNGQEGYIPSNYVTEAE

Variants of: B1
Experiment: abundance fitness (aPCA) (normalised: wild type 0, dead -1); higher = more abundant; growth selection in yeast, the domain comes from the species named
Conditions: Homo sapiens
Kindly supply the reported abundance fitness values for the records listed here.
Give bare numbers.

// worked examples, abundance fitness included
P36D: -0.013
W38V: 0.022
A40C: -0.121
E32Y: -0.083
Y49I: 0.001
N53M: -0.079

Hey, can you go through the list below and give me abundance fitness for every item?
1. A58V
2. L30R
3. E32A
4. V55S
5. I50N
6. I50Y

[0.001, -0.223, 0.016, -0.695, -0.92, -0.757]
